System: P-gp (MDR1)
Experiment: MDCK-MDR1 cell permeability and efflux
Assay type: in vitro ADME
Conditions: dog, MDCK-MDR1; read-out: MDCK-MDR1 efflux ratio (ER)

| compound | efflux ratio |
| --- | --- |
| Cc1sc2ncnc(SCC(=O)N3CCN(C)C(=O)C3)c2c1Cl [Compound 5g] | 2.7 |
| Cc1sc2ncnc(SCC(=O)N3CCNC(=O)C3)c2c1Cl [Compound 5d] | 5.5 |
| CCN1CCN(C(=O)CSc2ncnc3sc(C)c(Cl)c23)CC1=O [Compound 5h] | 34 |

###

Target: Notum (Homo sapiens, UniProt Q6P988)
Sequence (Q6P988 20-496): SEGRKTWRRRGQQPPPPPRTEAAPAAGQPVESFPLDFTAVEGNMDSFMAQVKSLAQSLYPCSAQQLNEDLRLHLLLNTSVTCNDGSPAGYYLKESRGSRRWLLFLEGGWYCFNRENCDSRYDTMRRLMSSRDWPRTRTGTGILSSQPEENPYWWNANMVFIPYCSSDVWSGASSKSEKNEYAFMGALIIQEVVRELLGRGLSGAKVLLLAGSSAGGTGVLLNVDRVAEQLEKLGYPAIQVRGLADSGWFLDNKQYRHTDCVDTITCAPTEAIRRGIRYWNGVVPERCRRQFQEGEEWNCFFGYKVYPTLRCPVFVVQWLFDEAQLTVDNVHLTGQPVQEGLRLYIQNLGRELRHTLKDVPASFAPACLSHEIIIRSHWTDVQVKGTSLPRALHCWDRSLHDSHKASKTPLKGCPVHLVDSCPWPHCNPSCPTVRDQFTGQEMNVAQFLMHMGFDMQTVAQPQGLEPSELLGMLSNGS
Experiment: Notum TCF/LEF reporter (Luciferase) HEK293 cell assay
readout_type: EC50

| smiles_str | result |
| --- | --- |
| CN1CN(C(=O)CSc2ncnc3c(C4CC4)c(Cl)sc23)CC1=O | < 250 nM |
